experimental_system: T1, mouse IL-2Rβ (mouse) (UniProt P16297)
T1 sequence (looked up): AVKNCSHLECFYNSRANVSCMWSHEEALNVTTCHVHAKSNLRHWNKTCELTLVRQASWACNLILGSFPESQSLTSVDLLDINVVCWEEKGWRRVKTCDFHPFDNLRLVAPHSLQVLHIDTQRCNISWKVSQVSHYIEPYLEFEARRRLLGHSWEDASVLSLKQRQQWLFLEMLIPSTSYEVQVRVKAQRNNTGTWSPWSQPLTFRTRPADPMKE
measurement_notes: P.E. binding ELISA on coated protein
Measured P.E. binding ELISA OD, listed per entry.

Solved cases below.
FJ1427_P035MP03H04 (VHH) VHH: QVQLVESGGGLVQAGGSLALSCAASGGTFSSYAMGWFRQAPGKEREFVAATTRGGGRTMYAVSTEGRFSCSRDNAKNTVYLLIKNLKPEDTAVYYCAARTSYYDGTYYPASSDFDIWGQGTQVTVSS
0.05 OD450 nm
FJ1427_P035MP03A02 (VHH) VHH: QVQLVESGGGLVQAGGSLRLSCAASGGTFSSYAMGWFRQAPGKEREFVAATTRGGGRTMYAVSTEGRFTCSRDNAENTVYLQMNSLKPEDTAIYYCAAMTSYYSGTYYPDSSDFDIWGQGTQVTVSS
0.052 OD450 nm

input: Query (binder): FJ1427_P035MP03G05 (VHH) VHH: EVQLVESGGGLVQIGGSLRLSCAASGRTFSSITMAYFRQVPGKEREWVAGINFSGTRTFYADSVKGRFLISRDDAKSTMYLQMNSLKPEDTAVYYCAASPRGFYGPGNALYDYWGQGTQVTVSS ; field requested: P.E. binding ELISA OD
output: 0.049 OD450 nm

input: Repeat for the following binder: FJ1427_P035MP02E12 (VHH) VHH: QVQLQESGGGLVQAGGSMRLSCAASGRTFSNYVIAWFRQAPGKEREFVGAITQTGRGTFYASSVEGRFTLSRLNDQSTVYLQMNSLNPEDTGVYYCSAPRSGRAGTRNQMDYEYWGQGTQVTVSS
output: 0.048 OD450 nm

input: Repeat for the following binder: FJ1427 P035MP03E01 (VHH) VHH: QVQLVESGGGLVQAGGSLRLSCAASGGTFSSYAMGWFRQAPGKEREFVAATTRGGGRTMYAVSTEGRFTCSRDNAKNTVYLLMNSLKPEDTAVYYCAAMTSYYSGTYYPDSSDFDIWGQGTQVTVSS
output: 0.049 OD450 nm
